Origin of values: ChEMBL document CHEMBL1201862

Reported GI50 values follow for various compounds
# Test system: BT-549
# procedure.text: NCI tumour cell line growth inhibition, 48 h
Calls of active or inactive are those of the source. No stated cut-off is given here; in the data, active = GI50 up to about 1.1 µM and inactive = higher.

{"columns": ["substance.smiles", "GI50"],
 "data": [
  ["CCN(CC)Cc1cc(Nc2ccnc3ccc4c(nnn4C)c23)ccc1O", "18.8 µM (inactive)"],
  ["CCNC(=S)N/N=C(\\C)c1cccc(C)n1", "31.5 µM (inactive)"],
  ["O=C(O)/C=c1/c2ccccc2n2nc3ccccc3c12", "37.4 µM (inactive)"],
  ["Nc1c(-c2ccccc2)c2ccc([N+](=O)[O-])cc2c(=O)n1-c1cccc(C(=O)O)c1", "51.9 µM (inactive)"]
]}
